Taken from paper PMC12758333.

Protein target, amino acids: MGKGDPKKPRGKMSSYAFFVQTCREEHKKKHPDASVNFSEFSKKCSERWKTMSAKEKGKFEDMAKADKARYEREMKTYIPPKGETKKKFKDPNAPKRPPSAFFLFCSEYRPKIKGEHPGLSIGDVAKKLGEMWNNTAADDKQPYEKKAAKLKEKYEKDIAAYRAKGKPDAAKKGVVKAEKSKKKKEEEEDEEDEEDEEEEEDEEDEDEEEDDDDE
reportedProperty: pKd
Answers are plain numbers, as −log10 of the molar value.

Prompt: Sample CN1CCN(c2ccc(C(=O)Nc3n[nH]c4ccc(Cc5cc(F)cc(F)c5)cc34)c(NC3CCOCC3)c2)CC1 — what was its pKd?
Completion: 4.18
